System: Trichophyton interdigitale CCM 8377 (ATCC 9533)
Experiment: Antifungal microdilution broth (EUCAST)
Assay type: cell-based
Settings: Trichophyton interdigitale; 120h incubation; read-out: MIC Trichophyton interdigitale
Below, each entry is listed with its recorded MIC.
Measured attribute: MIC

[[record]]
chemical_structure = "O=C(Nc1ccc2c(c1)B(O)OC2)c1ncc[nH]c1=O"
measured_attribute = "MIC"
result = "> 500 µM"

[[record]]
chemical_structure = "O=C(Nc1ccc2c(c1)B(O)OC2)c1nc2ccccc2[nH]c1=O"
measured_attribute = "MIC"
result = "> 125 µM"

[[record]]
chemical_structure = "O=C(Nc1ccc2c(c1)B(O)OC2)c1cscn1"
measured_attribute = "MIC"
result = "> 500 µM"

[[record]]
chemical_structure = "O=C(Nc1ccc2c(c1)B(O)OC2)c1ccc(Cl)s1"
measured_attribute = "MIC"
result = "> 500 µM"

[[record]]
chemical_structure = "O=C(Nc1ccc2c(c1)B(O)OC2)c1ccccn1"
measured_attribute = "MIC"
result = "> 500 µM"

[[record]]
chemical_structure = "O=C(Nc1ccc2c(c1)B(O)OC2)c1cnc2ccccc2n1"
measured_attribute = "MIC"
result = "> 500 µM"

